Data provenance: ChEMBL document CHEMBL1201862

Tested on: RPMI-8226
Experiment: NCI tumour cell line growth inhibition, 48 h
Active and inactive are the calls of the source. No stated cut-off is given here; in the data, active = GI50 up to about 1.1 µM and inactive = higher.
GI50: recorded values

# Compound, GI50
records = [
    ("O=C1CCC(c2ccc(Cl)cc2)=NN1c1nsc2ccccc12", "19.3 µM (inactive)"),
]

Reported GI50 for "Nc1nc(O)c2c(ncn2CCO)n1" : what is it? > 100 µM (inactive)

Reported GI50 for "N=c1sc(N2CCOCC2)nn1CC(=O)c1ccccc1" : what is it? > 100 µM (inactive)

Reported GI50 for CCN(CC)C1Oc2cc3c(cc2C(c2cc(OC)c(OC)c(OC)c2)C1C)OCO3 (stereo unspecified) : what is it? 0.927 µM (active)

Reported GI50 for "Cc1c(/C=N/NS(=O)(=O)c2ccccc2)no[n+]1[O-]" : what is it? > 100 µM (inactive)

Reported GI50 for COc1cc(/C=C2\CC(C)C/C(=C\c3ccc(O)c(OC)c3)C2=O)ccc1O (stereo unspecified) : what is it? 3.58 µM (inactive)

* * *

Test system: IGROV-1
Assay: NCI tumour cell line growth inhibition, 48 h
Calls of active or inactive are those of the source. No stated cut-off is given here; in the data, active = GI50 up to about 1.1 µM and inactive = higher.
Hi! Could you answer with just one of these? Y = active, N = inactive

Worked set:
# Compound, Assigned label
data = [
    ("Cc1cc(C(C)(C)C)cc(CNC2CCCCC2)c1O", "N"),
    ("COc1cc(C)c(/C=C/C(=O)N2C(=O)OC[C@@H]2c2ccccc2)c(C)c1", "N"),
    ("O=c1[nH]cc(/N=C/c2cc(Cl)ccc2O)c(=O)[nH]1", "N"),
    ("CC(=O)OC1C2CCC1C1C2N=NN1c1ccc([N+](=O)[O-])cc1 (stereo unspecified)", "N"),
    ("CC(C)CC1C(=O)OC(C)(C)OC1=O", "N"),
    ("O=C1N[C@@H]2C(=C[C@H](O)[C@@H](O)[C@H]2O)c2cc3c(c(O)c21)OCO3 [NARCICLASINE]", "Y"),
    ("O=C(Cn1ccnc1[N+](=O)[O-])c1ccc(F)cc1", "N"),
    ("NC(Cc1ccccc1)C(=O)N[C@H]1c2ccsc2/C(=N/O)[C@H]1O (stereo partly specified)", "N"),
    ("N#Cc1c(-c2ccc([N+](=O)[O-])cc2)c2c([nH]c1=O)-c1ccccc1CCC2", "N"),
    ("CC(C)(Oc1ccc(C2C[C@H]2Cl)cc1)C(=O)O (stereo partly specified)", "N"),
]

For COC(=O)C(/C(=N\O)C(=O)Nc1cccc(Cl)c1C)c1cnc2ccccc2n1 (stereo unspecified) , what call appears in the results of this test? N

For CC(=O)Nc1ccc(S(=O)(=O)Nc2nc(-c3ccc(Cl)cc3)cc(N3N=C(c4ccc(Br)cc4)CC3c3ccccc3)n2)cc1 (stereo unspecified) , what call appears in the results of this test? N

For "COc1ccc(-c2c3ccccc3c(-c3ccc(OCCCCCBr)cc3)c3ccccc23)cc1" , what call appears in the results of this test? N

For "Cc1cc(-n2nnc(C(=O)O)c2-c2ccccc2)c2ccc(Cl)cc2n1" , what call appears in the results of this test? N

For "Clc1ccc(-c2nnc(-c3cccc4ccccc34)o2)cc1Cl" , what call appears in the results of this test? N

* * *

GI50: recorded values
System: DLD-1
Assay: NCI tumour cell line growth inhibition, 48 h
The source made the active and inactive calls. No stated cut-off is given here; in the data, active = GI50 up to about 1.1 µM and inactive = higher.

# Compound, System tested, Measure, Observed
records = [
    ("Cc1cc(C)nc(NS(=O)(=O)c2ccc(NC(=O)COC(=O)c3cccc4c(=O)c5ccccc5[nH]c34)cc2)n1", "DLD-1", "GI50", "45.7 µM (inactive)"),
]

Reported GI50 for "C#CCOCn1cnc2c(Sc3c([N+](=O)[O-])ncn3C)ncnc21" : what is it? > 100 µM (inactive)

Reported GI50 for N#CC1=C(c2ccccc2)NNC(c2ccc(Cl)cc2)CC1=O (stereo not given) : what is it? 32.4 µM (inactive)

Reported GI50 for "Nc1nc(-c2ccccc2)c(Cl)c(-c2cc(Cl)ccc2O)n1" : what is it? 26.3 µM (inactive)

Reported GI50 for "COC(=O)C(=O)Cc1nc2ccccc2s1" : what is it? > 100 µM (inactive)

Reported GI50 for Nc1nc2c(ncn2C2CCC(CO)O2)c(=O)n1C(=O)c1ccccc1 (stereo not given) : what is it? > 100 µM (inactive)

Reported GI50 for "CC(C)(Br)C(=O)C(Br)Br" : what is it? 1.77 µM (inactive)
